target.or.test.system: PLA2 from Crotalus adamanteus (Crotalus adamanteus, UniProt P00623)
Sequence (P00623 17-138 limits assumed): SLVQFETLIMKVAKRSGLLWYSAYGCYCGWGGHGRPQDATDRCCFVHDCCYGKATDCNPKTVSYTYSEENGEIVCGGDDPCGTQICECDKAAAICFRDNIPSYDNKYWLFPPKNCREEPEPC
measured.endpoint: IC50 (µM)

>>> print(df.to_string())
                                   molecule  display_unit  quantitative_readout
0  O=CCc1cccc(CC2CCc3ccccc32)c1 (stereo not shown)            µM                   2.4
